Biological target: T1, recombinant soluble CD4 (rsCD4) (UniProt P01730 26-396, limits assumed)
T1 construct: Bought reagent coated on ELISA plates at 0.25 µg/ml; also called solid-phase rsCD4
Experiment: ELISA on rsCD4
Readout: fold reduction in binding compared to the chimeric antibody (fold)
Give bare numbers, in fold.

- deimmunized B4 antibody DIVHv.3/VKv.3 produced by NS0 cells (antibody, human IgG1, V domains shown, Human IgG1 and human kappa constant regions; NS0 cells; also called DIVHv.3/V v.3; DIVH3/VK3) VH: QVQLVQSGAEVKKPGASVKVSCKASGYTFTDYVIHWVKQATGQGLEWIGEIYPGSGSAYSNAKFKDRVTITADKSTNTAYMELRSLRSDDTAVYFCARRGNGTGFAYWGQGTLVTVSS VL: DIVLTQSPASLAVSPGQRATITCKAGQSVDYDGDSYMNWYQQKPGQPPKLLIYVASNLESGIPSRFSGSGSGTDFTLTINPVEENDTATYYCQQSYKDPLAFGPGTKVEIK: 5

Sure, the documented fold reduction in binding compared to the chimeric antibody for deimmunized B4 antibody DIVHv.2/VKv.3 produced by NS0 cells (antibody, human IgG1, V domains shown, Human IgG1 and human kappa constant regions; NS0 cells; also called DIVHv.2/V v.3; DIVH2/VK3) VH: QVQLVQSGAEVKKPGASVKVSCKASGYTFTDYVIHWVRQATGQGLEWIGEIYPGSGSAYSNAKFKDRVTITADKSTNTAYMELRSLRSDDTAVYFCARRGNGTGFAYWGQGTLVTVSS VL: DIVLTQSPASLAVSPGQRATITCKAGQSVDYDGDSYMNWYQQKPGQPPKLLIYVASNLESGIPSRFSGSGSGTDFTLTINPVEENDTATYYCQQSYKDPLAFGPGTKVEIK is 5
